Please go through the items and note down their IC50.
assay_target: HDAC6 (Homo sapiens (Human), UniProt Q9UBN7)
Sequence (Q9UBN7 whole entry): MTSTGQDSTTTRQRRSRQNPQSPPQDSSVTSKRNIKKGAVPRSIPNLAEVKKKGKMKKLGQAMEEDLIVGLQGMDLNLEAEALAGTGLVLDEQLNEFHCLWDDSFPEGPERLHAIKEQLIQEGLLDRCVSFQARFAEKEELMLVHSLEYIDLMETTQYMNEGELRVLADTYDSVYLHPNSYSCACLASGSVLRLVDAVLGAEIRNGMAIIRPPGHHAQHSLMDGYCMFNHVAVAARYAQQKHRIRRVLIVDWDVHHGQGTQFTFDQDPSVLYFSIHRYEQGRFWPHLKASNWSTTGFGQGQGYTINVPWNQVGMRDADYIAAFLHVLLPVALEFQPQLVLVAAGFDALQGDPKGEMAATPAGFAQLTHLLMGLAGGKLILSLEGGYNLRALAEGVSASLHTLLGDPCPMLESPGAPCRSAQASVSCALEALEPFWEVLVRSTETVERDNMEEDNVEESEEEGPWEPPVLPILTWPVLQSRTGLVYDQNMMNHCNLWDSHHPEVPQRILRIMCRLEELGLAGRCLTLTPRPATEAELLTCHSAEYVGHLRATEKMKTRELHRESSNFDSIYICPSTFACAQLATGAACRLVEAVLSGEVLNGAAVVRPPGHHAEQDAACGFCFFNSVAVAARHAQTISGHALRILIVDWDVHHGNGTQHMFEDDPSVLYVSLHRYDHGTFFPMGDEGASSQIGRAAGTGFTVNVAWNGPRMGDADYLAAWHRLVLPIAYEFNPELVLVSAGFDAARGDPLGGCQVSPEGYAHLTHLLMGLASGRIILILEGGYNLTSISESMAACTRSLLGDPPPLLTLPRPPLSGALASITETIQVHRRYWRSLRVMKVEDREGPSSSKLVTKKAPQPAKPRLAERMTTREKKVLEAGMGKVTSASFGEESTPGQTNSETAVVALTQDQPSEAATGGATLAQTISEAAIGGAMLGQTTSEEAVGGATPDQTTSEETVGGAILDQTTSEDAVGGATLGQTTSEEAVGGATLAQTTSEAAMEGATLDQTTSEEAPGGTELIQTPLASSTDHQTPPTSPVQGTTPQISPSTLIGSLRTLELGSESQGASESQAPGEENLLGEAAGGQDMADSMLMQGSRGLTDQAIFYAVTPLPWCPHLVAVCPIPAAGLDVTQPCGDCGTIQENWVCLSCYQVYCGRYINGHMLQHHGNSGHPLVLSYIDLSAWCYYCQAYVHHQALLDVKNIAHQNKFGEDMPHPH
experiment_description: HDAC6 in vitro enzymatic assay (fluorescence)
Assay type: biochemical
conditions: Table 3; read-out: IC50 (nM) for inhibition of HDAC6
Expressed in nM, but write only the number.

# input Request - read-out IC50 | tested on HDAC6 (Homo sapiens (Human), UniProt Q9UBN7) | compound "Cc1ccc(Nc2nc3cc(C(=O)NO)ccc3o2)cc1"
# output 9

# input Query "CC(C)c1ccc(-c2cc3ccc(C(=O)NO)cc3s2)cc1" next
# output 37

# input Next record, please: "CC(C)c1ccc(-c2cc3ccc(C(=O)NO)cc3o2)cc1"
# output 7

# input Likewise for "COc1ccc(-c2cc3cc(C(=O)NO)ccc3s2)cc1" ?
# output 9

# input Now consider "O=C(NO)c1ccc2sc(-c3ccc(OC(F)(F)F)cc3)cc2c1" .
# output 70

Origin of the recorded values: patent US10654814B2
